Reference source: PubChem BioAssay (NCI)

- System: U251 CNS
- Experimental Protocol: NCI tumour cell line growth inhibition, 48 h
Consider the following compounds; for each one, report its TGI.

Query COc1ccc(/C=C2\N=C3SC=C(N)N3C2=O)cc1 yields TGI of 5.49 µM

Query O/N=C\c1cc(O)c(O)c(/C=N/O)c1 yields TGI of > 100 µM

Query CN1OC(=O)N(C)C1c1ccccc1 (centres undefined) yields TGI of > 100 µM

Query C[C@@H]1OC(=O)C[C@H]2CC(=O)N(CCc3cn(S(=O)(=O)C(F)(F)F)c4ccccc34)C[C@@H]21 yields TGI of > 100 µM

Query CCNCC(O)c1ccc(N)c([N+](=O)[O-])c1 (centres undefined) yields TGI of > 100 µM

Query COc1ccc(/C=C2\COc3ccc(-c4ccccc4)cc3C2=O)cc1O yields TGI of 4.27 µM

Query Cc1nc(-c2nc([N+](=O)[O-])c([N+](=O)[O-])[nH]2)cs1 yields TGI of > 100 µM

Query CCN(CC)CCNc1ccc(C)c2sc3ccc(O)cc3c(=O)c12 yields TGI of 2.44 µM

Query CCc1cccc(C)c1NC(=O)NS(=O)(=O)c1ccc(C)cc1 yields TGI of > 100 µM
